Provide the reported pIC50 of each item.
# experimental-target: M1 family aminopeptidase (Plasmodium falciparum (isolate FcB1 / Columbia), UniProt O96935)
# Sequence (O96935 whole entry): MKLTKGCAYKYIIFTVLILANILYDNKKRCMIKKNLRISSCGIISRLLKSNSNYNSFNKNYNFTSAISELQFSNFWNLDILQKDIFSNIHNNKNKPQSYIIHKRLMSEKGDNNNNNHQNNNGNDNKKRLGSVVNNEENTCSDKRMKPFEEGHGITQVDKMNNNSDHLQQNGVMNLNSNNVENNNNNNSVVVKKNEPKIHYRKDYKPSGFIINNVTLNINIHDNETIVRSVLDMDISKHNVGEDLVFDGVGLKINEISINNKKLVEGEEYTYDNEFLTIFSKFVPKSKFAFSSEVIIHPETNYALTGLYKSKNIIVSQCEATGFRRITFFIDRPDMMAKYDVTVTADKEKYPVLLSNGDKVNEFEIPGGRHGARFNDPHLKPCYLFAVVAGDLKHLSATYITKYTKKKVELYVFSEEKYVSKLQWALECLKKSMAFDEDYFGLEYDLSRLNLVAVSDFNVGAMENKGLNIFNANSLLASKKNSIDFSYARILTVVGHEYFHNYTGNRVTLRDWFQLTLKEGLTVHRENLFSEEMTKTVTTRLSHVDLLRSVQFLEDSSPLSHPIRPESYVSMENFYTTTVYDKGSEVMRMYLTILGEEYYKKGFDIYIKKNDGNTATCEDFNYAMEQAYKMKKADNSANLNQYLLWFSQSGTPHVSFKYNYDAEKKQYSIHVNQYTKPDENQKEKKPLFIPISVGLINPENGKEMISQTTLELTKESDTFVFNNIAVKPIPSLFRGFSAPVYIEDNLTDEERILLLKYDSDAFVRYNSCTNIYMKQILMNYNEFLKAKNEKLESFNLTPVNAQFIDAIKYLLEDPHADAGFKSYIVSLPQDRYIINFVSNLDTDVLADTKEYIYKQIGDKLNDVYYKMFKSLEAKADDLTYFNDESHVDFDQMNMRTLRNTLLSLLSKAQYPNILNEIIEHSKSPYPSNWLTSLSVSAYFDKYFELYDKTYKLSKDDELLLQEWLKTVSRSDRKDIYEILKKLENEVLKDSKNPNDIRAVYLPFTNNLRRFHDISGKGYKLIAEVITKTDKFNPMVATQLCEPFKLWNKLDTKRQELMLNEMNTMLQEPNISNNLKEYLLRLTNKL
# assay-protocol: P. falciparum M1AAP inhibitors, biochemical, fluorogenic H-Leu-NHMec substrate, 1536-well (AID 1445)
Answers are plain numbers, as −log10 of the molar value.

| molecule | metric | reported-value |
| --- | --- | --- |
| CCOC(=O)C1C(=O)C(=Cc2ccc(OCC(=O)O)c(OC)c2)SC1=Nc1ccc(OC)cc1 (stereo not given) | pIC50 | 4.06 |
| CCC(=O)N1N=C(C2C(=O)N(C)C(=O)N(C)C2=O)CC1c1ccccc1 (stereo not given) | pIC50 | 4.38 |

For each listed entry, give its pIC50.
1. Cc1ccc2c(c1C)Nc1c(c(=O)c1=O)N2 [SMR000459860]
2. C=c1[nH]n(-c2ccc(Cl)c(C(=O)O)c2)c(=O)c1=Cc1ccc(-c2ccc(C(=O)O)cc2)o1 [SMR000312901]
3. NC(=NNC=c1ccc(=C2C=CC(=O)C(C(=O)O)=C2)o1)N[N+](=O)[O-]

Result:
[4.31, 5.62, 4.99]
